src = patent US10323041B2

Biological target: UniProt:Q07820
Experiment: Inhibition of Mcl-1 by the fluorescence polarisation technique
Format: binding
Details: Method 1 (not underlined) or Method 2 (underlined); underlining not visible; first value where cell prints two; read-out: IC50 (M) Mcl-1 FP
Property name: IC50 (M)

What IC50 value was documented for this compound, COc1ccccc1-c1nccc(COc2ccccc2CC(Oc2ccnc3sc(-c4ccc(F)cc4)c(-c4ccc(OCCN5CCN(C)CC5)c(Cl)c4C)c23)C(=O)OC(C)OC(=O)N(C)C)n1 (stereo not drawn) ?
5.61e-07

1 = CCc1c(-c2c(-c3ccc(F)cc3)oc3ncnc(O[C@H](Cc4ccccc4OCc4ccnc(-c5ccccc5OC)n4)C(=O)O)c23)ccc(OCCN2CCN(C)CC2)c1Cl
2 = CCc1c(-c2cccc3ccccc23)c2c(N[C@H](Cc3ccccc3)C(=O)O)ncnc2n1Cc1ccccc1 (single isomer, unassigned) [Example 13]
3 = CCc1c(-c2cccc(Cl)c2C)c2c(NC(Cc3ccccc3)C(=O)O)ncnc2n1CC(F)(F)F (stereo not drawn)
4 = CCc1c(-c2cccc(Cl)c2C)c2c(NC(Cc3ccccc3)C(=O)O)ncnc2n1Cc1cccc2ccccc12 (single isomer, unassigned) [Example 32]
5 = Cc1c(Cl)cccc1-c1c2n(c3ncnc(NC(Cc4ccccc4)C(=O)O)c13)CCCC2 (single isomer, unassigned) [Example 48]
Put the compounds in ascending order of IC50. Returns: the labels listed in the requested order.
1, 2, 4, 5, 3
(1: 6e-09 M, 2: 6.6e-07 M, 4: 3.5e-06 M, 5: 5.9e-06 M, 3: 8.5e-06 M)

---

Biological target: Mcl-1 protein (Homo sapiens, UniProt Q07820)
Sequence (Q07820 whole entry): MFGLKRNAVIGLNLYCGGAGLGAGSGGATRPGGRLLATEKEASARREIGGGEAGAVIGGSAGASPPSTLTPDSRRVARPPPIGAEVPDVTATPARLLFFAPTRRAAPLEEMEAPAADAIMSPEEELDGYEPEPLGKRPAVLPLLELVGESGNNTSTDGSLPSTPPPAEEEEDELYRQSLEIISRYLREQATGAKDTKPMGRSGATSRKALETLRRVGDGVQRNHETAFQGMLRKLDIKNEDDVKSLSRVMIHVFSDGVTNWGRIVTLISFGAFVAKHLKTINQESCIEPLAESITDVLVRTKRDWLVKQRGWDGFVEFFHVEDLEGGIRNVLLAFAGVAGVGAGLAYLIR
Assay: Inhibition of Mcl-1 by the fluorescence polarisation technique
Assay type: binding
Conditions: Method 1 (not underlined) or Method 2 (underlined); underlining not visible; first value where cell prints two; read-out: IC50 (M) Mcl-1 FP
Property name: IC50 (M)

Solved entries:
What IC50 value was documented for this compound, CCc1sc2cccc(OC(Cc3ccccc3)C(=O)O)c2c1-c1ccc(O)c(Cl)c1C (stereo not shown) [Example 49] ?
3.9e-08

// same read-out, input: COc1ccccc1-c1nccc(COc2ccccc2CC(Oc2cc(F)cc3oc(-c4ccc(F)cc4)c(-c4ccc(OCCN5CCN(C)CC5)c(Cl)c4C)c23)C(=O)O)n1 (stereo not shown) [Example 67]
1.4e-08

// same read-out, input: CCc1c(-c2cccc(Cl)c2C)c2c(NC(Cc3ccccc3)C(=O)O)ncnc2n1CCC1CCCC1 (single isomer, unassigned) [Example 31]
7.9e-07

// same read-out, input: C=CCCn1c(Br)c(-c2cccc(Cl)c2C)c2c(NC(Cc3ccccc3)C(=O)O)ncnc21 (single isomer, unassigned) [Example 41]
1.3e-05

// same read-out, input: Cc1c(-c2cn(Cc3ccccc3)c3ncnc(O[C@H](Cc4ccccc4)C(=O)O)c23)ccc(OCCN2CCN(C)CC2)c1Cl [Example 45]
1.8e-06

1 = COc1ccccc1-c1nccc(COc2ccccc2CC(Oc2cccc3oc(-c4ccc(F)cc4)c(-c4ccc(OCCN5CCN(C)CC5)c(Cl)c4C)c23)C(=O)O)n1 (single isomer, unassigned) [Example 64]
2 = C=CCn1c(Br)c(-c2cccc(Cl)c2C)c2c(NC(Cc3ccccc3)C(=O)O)ncnc21 (stereo not shown) [Example 44]
3 = C=CCn1c(CC)c(-c2cccc(Cl)c2C)c2c(NC(Cc3ccccc3)C(=O)O)ncnc21 (single isomer, unassigned) [Example 25]
4 = COc1ccccc1-c1nccc(COc2ccccc2C[C@@H](Oc2ncnc3c2c(-c2ccc(OCCN4CCN(C)CC4)c(Cl)c2C)c(-c2ccc(F)cc2)n3C)C(=O)O)n1 [Example 72]
Put the compounds in ascending order of IC50. Returns: the labels listed in the requested order.
1, 4, 2, 3

---

Target: Mcl-1 protein (Homo sapiens)
Assay: Inhibition of Mcl-1 by the fluorescence polarisation technique
Assay type: binding
Conditions: Method 1 (not underlined) or Method 2 (underlined); underlining not visible; first value where cell prints two; read-out: IC50 (M) Mcl-1 FP
Property name: IC50 (M)

Solved entries:
What IC50 value was documented for this compound, CCc1c(-c2cccc(Cl)c2C)c2c(NC(Cc3ccccc3)C(=O)O)ncnc2n1C (stereo not drawn) [Example 21] ?
8.7e-06

// same read-out, input: CCc1c(-c2cccc(Cl)c2C)c2c(NC(Cc3ccccc3)C(=O)O)ncnc2n1Cc1cccc2ccccc12 (single isomer, unassigned) [Example 33]
2.6e-07

// same read-out, input: Cc1c(-c2c(-c3ccc(F)cc3)oc3cccc(OC(Cc4ccccc4OCC(F)(F)F)C(=O)O)c23)ccc(OCCN2CCN(C)CC2)c1Cl (stereo not drawn) [Example 65]
1e-06

A = COc1ccccc1CC(Oc1cccc2cc(-c3ccc(F)cc3)n(-c3ccc(OCCN4CCN(C)CC4)c(Cl)c3C)c12)C(=O)O (stereo not drawn) [Example 56]
B = COc1ccccc1-c1nccc(COc2ccccc2CC(Oc2cccc3sc(-c4ccc(F)cc4)c(-c4ccc(OCCN5CCN(C)CC5)c(Cl)c4C)c23)C(=O)O)n1 (single isomer, unassigned) [Example 53]
C = CCc1c(-c2cccc(Cl)c2C)c2c(NC(Cc3ccccc3)C(=O)O)ncnc2n1Cc1ccc(OC)cc1 (single isomer, unassigned) [Example 34]
Sort these compounds on IC50 so the largest reading comes first. Returns: the labels listed in the requested order.
C, A, B
(C: 6.4e-06 M, A: 4.7e-08 M, B: 2.2e-08 M)

P = COc1ccccc1-c1nccc(COc2ccccc2CC(Oc2nccc3nc(-c4ccc(F)cc4)c(-c4ccc(OCCN5CCN(C)CC5)c(Cl)c4C)n23)C(=O)O)n1 (stereo not drawn) [Example 97b]
Q = CCc1c(-c2cccc3ccccc23)c2c(N[C@H](Cc3ccccc3)C(=O)O)ncnc2n1CCc1ccccc1 (single isomer, unassigned) [Example 17]
Thinking about recorded IC50 values, which is higher, P or Q ? # answer = label of selected item
Q

---

Target: Mcl-1 protein (Homo sapiens)
Test: Inhibition of Mcl-1 by the fluorescence polarisation technique
Type: binding
Conditions: Method 1 (not underlined) or Method 2 (underlined); underlining not visible; first value where cell prints two; read-out: IC50 (M) Mcl-1 FP
Property name: IC50 (M)

What IC50 value was documented for this molecule, CCc1c(-c2ccc(OCCN3CCN(C)CC3)c(Cl)c2C)c2c(OC(Cc3ccccc3)C(=O)O)ncnc2n1Cc1ccccc1 (stereo not drawn) [Example 40] ?
8.6e-07

// same read-out, input: CCOC(=O)OC(C)OC(=O)C(Cc1ccccc1OCc1ccnc(-c2ccccc2OC)n1)Oc1ccnc2sc(-c3ccc(F)cc3)c(-c3ccc(OCCN4CCN(C)CC4)c(Cl)c3C)c12 (stereo not drawn) [Example 76]
1.34e-07

// same read-out, input: COc1ccccc1-c1nccc(COc2ccccc2CC(Oc2ccnc3sc(-c4ccc(F)cc4)c(-c4ccc(OCCN5CCN(C)CC5)c(Cl)c4C)c23)C(=O)O)n1 (stereo not drawn) [Example 71]
5.02e-09

// same read-out, input: COc1ccccc1-c1nccc(COc2ccccc2CC(Oc2cccc3oc(-c4ccc(F)cc4)c(-c4ccc(OCCN5CCN(C)CC5)c(Cl)c4C)c23)C(=O)O)n1 (single isomer, unassigned) [Example 63]
1.7e-07

P = COc1ccccc1-c1nccc(COc2ccccc2C[C@@H](Nc2nccc3sc(-c4ccc(F)cc4)c(-c4ccc(OCCN5CCN(C)CC5)c(Cl)c4C)c23)C(=O)O)n1 [Example 86]
Q = Cc1c(Cl)cccc1-c1c2n(c3ncnc(NC(Cc4ccccc4)C(=O)O)c13)CCCC2 (single isomer, unassigned) [Example 47]
# query: argmin of IC50 over P and Q # answer = label of selected item
P
(P: 3.05e-08 M, Q: 1.1e-05 M)

---

Molecular target: Mcl-1 protein (Homo sapiens)
Assay: Inhibition of Mcl-1 by the fluorescence polarisation technique
Format: binding
Details: Method 1 (not underlined) or Method 2 (underlined); underlining not visible; first value where cell prints two; read-out: IC50 (M) Mcl-1 FP
Property name: IC50 (M)

1 = CCc1c(-c2cccc(Cl)c2C)c2c(NC(Cc3ccccc3)C(=O)O)ncnc2n1Cc1ccccc1 (single isomer, unassigned) [Example 37]
2 = Cc1c(-c2c(-c3ccc(Cl)o3)oc3ncnc(O[C@H](Cc4ccccc4OCc4cnccn4)C(=O)O)c23)ccc(OCCN2CCN(C)CC2)c1Cl
# query: argmin of IC50 over 1 and 2 # answer = label of selected item
2

---

Target: UniProtKB Q07820
Assay: Inhibition of Mcl-1 by the fluorescence polarisation technique
Format: binding
Settings: @ 10 μM test compound; partial inhibitors
Property name: percentage fluorescence polarization inhibition (% @ 10 μM)

What percentage fluorescence polarization inhibition value was documented for this molecule, `COc1ccccc1C[C@@H](Oc1cccc2cc(-c3ccc(F)cc3)n(-c3ccc(OCCN4CCN(C)CC4)c(Cl)c3C)c12)C(=O)O` ?
55.35

// same read-out, input: CCc1sc2cccc(OC(Cc3ccccc3)C(=O)O)c2c1-c1ccc(O)c(Cl)c1C (centres unmarked)
65.85

// same read-out, input: COc1ccccc1CC(Oc1cccc2oc(-c3ccc(F)cc3)c(-c3ccc(OCCN4CCN(C)CC4)c(Cl)c3C)c12)C(=O)O (centres unmarked)
52.8

// same read-out, input: COc1ccccc1-c1nccc(COc2ccccc2CC(Oc2nccc3nc(-c4ccc(F)cc4)c(-c4ccc(OCCN5CCN(C)CC5)c(Cl)c4C)n23)C(=O)O)n1 (centres unmarked) [Example 97a]
55

// same read-out, input: COc1ccccc1CC(Oc1cccc2cc(-c3ccco3)n(-c3ccc(OCCN4CCN(C)CC4)c(Cl)c3C)c12)C(=O)O (centres unmarked)
51.9
